Ok so here's the combined literature set: IC50 for Xaa-Pro aminopeptidase 1 (Homo sapiens, UniProt Q9NQW7).

Given the entry N[C@@H](CC(=O)N1CCn2c(nnc2C(F)(F)F)C1Cc1cc(C(F)(F)F)cc(C(F)(F)F)c1)Cc1cc(F)c(F)cc1F (stereo in doubt; 48a) , what IC50 was observed with Xaa-Pro aminopeptidase 1 (Homo sapiens, UniProt Q9NQW7)? > 10 µM

Given the entry COC(=O)[C@H](CC(C)C)NC(=O)[C@@H](O)[C@H](N)Cc1ccccc1 , what IC50 was observed with Xaa-Pro aminopeptidase 1 (Homo sapiens, UniProt Q9NQW7)? 298 µM

Given the entry CN(C)C(=O)CC1c2nnc(C(F)(F)F)n2CCN1C(=O)C[C@H](N)Cc1cc(F)c(F)cc1F (stereo in doubt; 41a) , what IC50 was observed with Xaa-Pro aminopeptidase 1 (Homo sapiens, UniProt Q9NQW7)? > 10 µM

Given the entry CN(C)C(=O)[C@@H](c1ccc(-c2ccc3nccn3c2)cc1)[C@H](N)C(=O)N1CC[C@H](F)C1 , what IC50 was observed with Xaa-Pro aminopeptidase 1 (Homo sapiens, UniProt Q9NQW7)? > 40 µM

Given the entry CN(C)C(=O)[C@@H](c1ccc(-c2ccn3ncnc3c2)cc1)[C@H](N)C(=O)N1CC[C@H](F)C1.O=C(O)C(F)(F)F , what IC50 was observed with Xaa-Pro aminopeptidase 1 (Homo sapiens, UniProt Q9NQW7)? > 40 µM

Given the entry N[C@@H](CC(=O)N1CCn2c(nnc2C(F)(F)F)C1Cc1ccccn1)Cc1cc(F)c(F)cc1F (stereo in doubt; 49a) , what IC50 was observed with Xaa-Pro aminopeptidase 1 (Homo sapiens, UniProt Q9NQW7)? > 10 µM

Given the entry N[C@@H](CC(=O)N1CCn2c(nnc2C(F)(F)F)[C@@H]1Cc1ccc(F)cc1)Cc1cc(F)c(F)cc1F , what IC50 was observed with Xaa-Pro aminopeptidase 1 (Homo sapiens, UniProt Q9NQW7)? > 10 µM
